# system_under_test: human CCR8 (human, UniProt P51685 1-355)
# experiment: cell-based or functional assay
readout_label: residual hCCL1 (100 nM) Gi2 response, protocol #3, mAb 5 µg/mL (%)
Just the number in %, nothing appended.

Below are worked cases with known answers.
- anti-CCR8 mAb 1-23 (antibody, human IgG1, kappa, V domains shown, Humanized mAb, human IgG1 / kappa) VH: QVQLVQSGPEVVKPGASVKVSCKTSGYTFTEYTIHWVRQAPGQSLEWVGGINPNNGNTRYDQKFQGRVTITRDKSASTAYMELRSLTSEDTAVYYCARVARSSGSGPYAMDYWGQGTTVTVSS VL: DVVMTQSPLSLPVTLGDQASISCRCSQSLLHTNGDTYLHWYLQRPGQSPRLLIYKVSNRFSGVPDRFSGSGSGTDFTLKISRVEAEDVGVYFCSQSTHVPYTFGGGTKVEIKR: 42
- anti-CCR8 mAb 1-11 (antibody, V domains shown, Murine hybridoma mAb) VH: QVQLQQPGAELVKPGASVKMSCKATGYTFTGYNMHWVKQTPGQGLEWIGAISPGKGDTSYNLKFKGKATLTTDKSSSTAYMQLSSLTSADSAVYYCARSGGTPFAYWGQGTLVTVSA VL: DVVMTQTPLSLPVSLGDQASISCRSSQSLVHSNGDTYLYWYLQKPGQSPKLLIYKVSNRFSGVPDRFSGSGSGTDFTLKINRVEAEDLGVYFCSQSTHVPYTFGGGTKLEIK: 84

(Q) // residual hCCL1 (100 nM) Gi2 response, protocol #3, mAb 5 µg/mL lookup, key: anti-CCR8 mAb 1-13 (antibody, V domains shown, Murine hybridoma mAb) VH: EVQLVETGGGLVQPKGSLKLSCAASGFTFNTNAMNWVRQAPGKGLEWVARIRSKSNYYATYYADSVKDRFTISRDDSQSMLYLQMNNLKTEDTAMYYCVRGREMGNYYSMDYWGQGTSVTVSS VL: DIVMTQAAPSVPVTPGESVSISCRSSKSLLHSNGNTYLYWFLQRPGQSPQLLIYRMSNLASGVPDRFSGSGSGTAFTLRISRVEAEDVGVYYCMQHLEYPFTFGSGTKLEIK
(A) 38

(Q) Similarly, anti-CCR8 mAb 1-10 (antibody, V domains shown, Murine hybridoma mAb) VH: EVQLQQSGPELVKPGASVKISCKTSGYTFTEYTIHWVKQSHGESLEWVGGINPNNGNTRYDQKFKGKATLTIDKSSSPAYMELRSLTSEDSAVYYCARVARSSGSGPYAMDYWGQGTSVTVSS VL: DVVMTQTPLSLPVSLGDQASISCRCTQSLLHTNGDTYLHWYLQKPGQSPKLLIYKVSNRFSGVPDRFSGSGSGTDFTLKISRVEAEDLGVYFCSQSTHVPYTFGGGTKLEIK ?
(A) 45

(Q) Queued: anti-CCR8 mAb 1-12 (antibody, V domains shown, Murine hybridoma mAb) VH: EVQLVETGGGLVQPKGSLKLSCAASGFTFNANAMNWVRQAPGKGLEWVARIRSKSNNYATYYADSVKDRFTISRDDSQSMLYLQMNNLKTEDTAMYYCVRGSDNYIFYAMDYWGQGTSVTVSS VL: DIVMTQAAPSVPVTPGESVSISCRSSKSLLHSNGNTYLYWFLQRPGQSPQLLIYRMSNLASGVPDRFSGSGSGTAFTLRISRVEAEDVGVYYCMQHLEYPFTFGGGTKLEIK
(A) 48
